Test system: Fibroblast
experiment_summary: Multiplex assay against human fibroblast
Format: toxicity, cell-based
experimental_conditions: 48 h, 1 µM, compound concentration 1 uM, replicate 2
Non-standard residues stand in square brackets, D forms with d. Residues, ends and D or L forms follow the SMILES beside them.
parameter: Population Hoechst High Intensity Objects (%)

[
  {
    "compound": "Cl.Cl.OCCOCCN1CCN(C(c2ccccc2)c2ccc(Cl)cc2)CC1 (stereo unspecified) [HYDROXYZINE HYDROCHLORIDE]",
    "units_text": "%",
    "recorded_value": 3
  },
  {
    "compound": "O=C(NCCNCC(O)COc1ccc(O)cc1)N1CCOCC1.O=C(NCCNCC(O)COc1ccc(O)cc1)N1CCOCC1.O=C(O)/C=C/C(=O)O (stereo unspecified) [XAMOTEROL FUMARATE]",
    "units_text": "%",
    "recorded_value": 2
  },
  {
    "compound": "CCCCC[C@H](O)/C=C/[C@H]1[C@H](O)CC(=O)[C@@H]1CCCCCCC(=O)O",
    "units_text": "%",
    "recorded_value": 3
  },
  {
    "compound": "CN(C)C(=O)Cn1cc(-c2ccc(-c3nnc4ccccn34)cc2)cn1",
    "units_text": "%",
    "recorded_value": 5
  },
  {
    "compound": "Cc1cc(O)c(-c2ccc([C@@H](C)CN(C)C)cc2)c2c1[nH]c(=O)c1sccc12",
    "units_text": "%",
    "recorded_value": 9
  },
  {
    "compound": "CCn1c(-c2nc3cc(C(=O)N4CCCC(N)C4)ccc3n2C)cc2ccccc21.Cl (stereo unspecified)",
    "units_text": "%",
    "recorded_value": 5
  },
  {
    "compound": "C[C@@H]1CC(=O)Nc2cccc(-c3ccc4c(c3)c(-c3cnn(C)c3)nn4C)c2N1",
    "units_text": "%",
    "recorded_value": 2
  },
  {
    "compound": "Cc1cc(-c2ccc3c(c2)CC[C@H]3N2CC3(CCN(C(=O)Cc4cn5cc(C)sc5n4)CC3)C2)ncn1",
    "units_text": "%",
    "recorded_value": 2
  },
  {
    "compound": "CC(C)C[C@@H]1NC(=O)[C@@H](C(C)C)NC(=O)[C@@H]2CCCN2C(=O)[C@@H](CC(=O)O)NC(=O)[C@@H](Cc2c[nH]c3ccccc23)NC1=O [BQ-123] (cyclo(L[dW][dD]P[dV]))",
    "units_text": "%",
    "recorded_value": 4
  },
  {
    "compound": "CN1CCC(C(=O)c2cccc(NC(=O)c3c(F)cc(F)cc3F)n2)CC1",
    "units_text": "%",
    "recorded_value": 2
  },
  {
    "compound": "Cc1nn(C)c2nc(NNC(=O)Nc3cc(Cl)nc(Cl)c3)cc(C(C)C)c12",
    "units_text": "%",
    "recorded_value": 2
  }
]

---

Recorded Population Apoptotic (%) for the following compounds
Test system: HEK-293T
experiment_summary: Multiplex assay against HEK293T
Assay type: toxicity, cell-based
experimental_conditions: human, 12 h, 10 µM, compound concentration 10 uM, replicate 2
Non-standard residues stand in square brackets, D forms with d. Residues, ends and D or L forms follow the SMILES beside them.

[
  {
    "compound": "CCCCCCNC(=O)Nc1ccc(S(=O)(=O)Nc2ccc(CCNC[C@H](O)COc3ccc(O)cc3)cc2)cc1 [L-755507]",
    "Population Apoptotic (%)": 71
  },
  {
    "compound": "COCCCN1CCC(NC(=O)c2cc(Cl)c(N)c3c2OCC3)CC1 [PRUCALOPRIDE]",
    "Population Apoptotic (%)": 56
  },
  {
    "compound": "CN(C)C(=O)Cn1cc(-c2ccc(-c3nnc4ccccn34)cc2)cn1",
    "Population Apoptotic (%)": 51
  },
  {
    "compound": "CC(C)C[C@@H]1NC(=O)[C@@H](C(C)C)NC(=O)[C@@H]2CCCN2C(=O)[C@@H](CC(=O)O)NC(=O)[C@@H](Cc2c[nH]c3ccccc23)NC1=O [BQ-123] (cyclo(L[dW][dD]P[dV]))",
    "Population Apoptotic (%)": 71
  },
  {
    "compound": "Cc1sc2c(c1C)C(c1ccc(Cl)cc1)=N[C@H](CC(=O)OC(C)(C)C)c1nnc(C)n1-2",
    "Population Apoptotic (%)": 66
  },
  {
    "compound": "C[C@H](NC(=O)CNC(=O)c1cccc(Cl)c1)c1ccccc1",
    "Population Apoptotic (%)": 58
  },
  {
    "compound": "COc1ccc2c(c1OCc1ccccc1)C[C@@H](C(=O)O)N(C(=O)C(c1ccccc1)c1ccccc1)C2 [OLODANRIGAN]",
    "Population Apoptotic (%)": 44
  }
]

---

Test system: Fibroblast
experiment_summary: Multiplex assay against human fibroblast
Format: toxicity, cell-based
experimental_conditions: 24 h, 10 µM, compound concentration 10 uM, replicate 1
Recorded Population Tubulin-Different-Phenotype (%) for the following compounds
parameter: Population Tubulin-Different-Phenotype (%)

[
  {
    "test_smiles": "COc1c(Nc2ccc(S(C)(=O)=O)nc2C)ncnc1OC1CCN(C(=O)OC(C)C)CC1",
    "recorded_value": "41%"
  },
  {
    "test_smiles": "Nc1nc(-c2ccco2)c2cnn(Cc3ccccc3F)c2n1",
    "recorded_value": "39%"
  },
  {
    "test_smiles": "COc1cc(OC2CCN(C(C)=O)CC2)ccc1C(=O)N1CCC(N2C(=O)OCc3ccccc32)CC1",
    "recorded_value": "39%"
  }
]

---

Tested on: HEK-293T
experiment_summary: Multiplex assay against HEK293T
Assay type: toxicity, cell-based
experimental_conditions: human, 48 h, 1 µM, compound concentration 1 uM, replicate 1
Rule: 1 (yes) for Population Mitochondria Different-Phenotype (%) not less than 20%, 0 (no) for anything less.

[
  {
    "compound": "O=C(NCCNCC(O)COc1ccc(O)cc1)N1CCOCC1.O=C(NCCNCC(O)COc1ccc(O)cc1)N1CCOCC1.O=C(O)/C=C/C(=O)O (configuration not stated) [XAMOTEROL FUMARATE]",
    "answer_label": "0 (no)"
  },
  {
    "compound": "CC(C)(C)c1ccc(CSc2cnn(C(C)(C)C)c(=O)c2Cl)cc1",
    "answer_label": "1 (yes)"
  },
  {
    "compound": "CCCCC[C@H](O)/C=C/[C@H]1[C@H](O)CC(=O)[C@@H]1CCCCCCC(=O)O",
    "answer_label": "0 (no)"
  },
  {
    "compound": "OCCCNc1cc(-c2ccnc(Nc3cccc(Cl)c3)n2)ccn1",
    "answer_label": "1 (yes)"
  },
  {
    "compound": "CN1C[C@H](C(=O)N[C@]2(C)O[C@@]3(O)[C@@H]4CCCN4C(=O)[C@H](Cc4ccccc4)N3C2=O)C[C@@H]2c3cccc4[nH]cc(c34)C[C@H]21.CS(=O)(=O)O [DIHYDROERGOTAMINE MESYLATE]",
    "answer_label": "0 (no)"
  },
  {
    "compound": "C[C@@H]1CC(=O)Nc2cccc(-c3ccc4c(c3)c(-c3cnn(C)c3)nn4C)c2N1",
    "answer_label": "1 (yes)"
  },
  {
    "compound": "CCC(=O)OCC(=O)[C@@]1(OC(=O)CC)[C@@H](C)C[C@H]2[C@@H]3CCC4=CC(=O)C=C[C@]4(C)[C@@]3(Cl)[C@@H](O)C[C@@]21C [BECLOMETHASONE DIPROPIONATE]",
    "answer_label": "1 (yes)"
  }
]

---

Test system: HEK-293T
experiment_summary: Multiplex assay against HEK293T
Assay type: toxicity, cell-based
experimental_conditions: human, 12 h, 1 µM, compound concentration 1 uM, replicate 1
Recorded Population Normal (%) for the following compounds
parameter: Population Normal (%)

[
  {
    "compound": "CN(C)C(=O)Cn1cc(-c2ccc(-c3nnc4ccccn34)cc2)cn1",
    "units_text": "%",
    "recorded_value": 90
  },
  {
    "compound": "CCCCC[C@H](O)/C=C/[C@H]1[C@H](O)CC(=O)[C@@H]1CCCCCCC(=O)O [ALPROSTADIL]",
    "units_text": "%",
    "recorded_value": 92
  },
  {
    "compound": "Cc1cc(=O)n(C)c2cc(N3C(=O)CC[C@H](NS(=O)(=O)CC(C)C)[C@H]3c3ccc(Cl)cc3)ccc12",
    "units_text": "%",
    "recorded_value": 91
  },
  {
    "compound": "COc1cc(C(=O)N2CC[C@@H](O)[C@@H](N)C2)cc2nc(-c3cc4ccccc4n3CC3CC3)n(C)c12.Cl",
    "units_text": "%",
    "recorded_value": 89
  },
  {
    "compound": "Cc1sc2c(c1C)C(c1ccc(Cl)cc1)=N[C@H](CC(=O)OC(C)(C)C)c1nnc(C)n1-2",
    "units_text": "%",
    "recorded_value": 91
  },
  {
    "compound": "CN1CCC(C(=O)c2cccc(NC(=O)c3c(F)cc(F)cc3F)n2)CC1",
    "units_text": "%",
    "recorded_value": 91
  }
]
